Hey, just so you know, these numbers are from ChEMBL document CHEMBL6153137.

Assay procedure: Half life in male Sprague-Dawley rat at 10 mg/kg, po administered via gavage and measured on day 1
Format: ADME, organism-based
Conditions used: in vivo, time 1 day
Test readout: half-life

Compound structure	Endpoint result
C=CC(=O)N1CCc2c(ncnc2N2CC[C@@H](Nc3ncc(Cl)c(OC)n3)C2)C1	3.2 h

====

Assay procedure: AUC(0 to t) in female Sprague-Dawley rat at 7.5 mg/kg, po administered via gavage and measured on day 1
Assay type: ADME, organism-based
Conditions used: in vivo, 24 h, time 1 day

Compound structure	AUCt
C=CC(=O)N1CCc2c(ncnc2N2CC[C@@H](Nc3ncc(Cl)c(OC)n3)C2)C1	1640 ng·h/mL

====

Assay procedure: AUC(0 to t) in male Sprague-Dawley rat at 40 mg/kg, po administered via gavage and measured on day 1
Format: ADME, organism-based
Conditions used: in vivo, 24 h, time 1 day

Compound structure	AUCt
C=CC(=O)N1CCc2c(ncnc2N2CC[C@@H](Nc3ncc(Cl)c(OC)n3)C2)C1	7120 ng·h/mL

====

System: NAMALVA
Assay procedure: Antiproliferative activity against human NAMALWA cells assessed as reduction in cell viability incubated for 7 days by CellTiter-Glo reagent based luminescence analysis
Format: functional
Conditions used: 168 h

Compound structure	IC50, nM
C=CC(=O)N1CCc2c(ncnc2N2CC[C@@H](Nc3ncc(Cl)c(OC)n3)C2)C1	98

====

Assay procedure: Ratio of drug level in tumor to plasma in Balb/c mouse xenografted with human SUM149PT cells at 60 mg/kg, po administered via gavage and measured after 2 hrs
Type: ADME, organism-based
Test readout: Kp at 2 h

Compound structure	Test readout	Endpoint result
C=CC(=O)N1CCc2c(ncnc2N2CC[C@@H](Nc3ncc(Cl)c(OC)n3)C2)C1	Kp at 2 h	0.42

====

Assay procedure: Clearance in CD-1 mouse at 1 mg/kg, iv measured for 24 hrs by LC-MS/MS analysis
Type: ADME, organism-based
Conditions used: in vivo

Compound structure	clearance, mL/min/kg
CC#CC(=O)N1CCc2c(ncnc2N2CC[C@@H](Nc3ncc(Cl)c(OC)n3)C2)C1	179

====

Assay procedure: Half-life in Balb/c mouse xenografted with human MV4-11 cells at 15 mg/kg, po administered once daily via gavage
Format: ADME, organism-based
Conditions used: in vivo
Test readout: half-life (h)

Compound structure	Endpoint result
C=CC(=O)N1CCc2c(ncnc2N2CC[C@@H](Nc3ncc(Cl)c(OC)n3)C2)C1	4.09

====

Assay procedure: Cmax in male Sprague-Dawley rat at 20 mg/kg, po administered via gavage and measured on day 1
Type: ADME, organism-based
Conditions used: in vivo, time 1 day

Compound structure	Cmax, ng/mL
C=CC(=O)N1CCc2c(ncnc2N2CC[C@@H](Nc3ncc(Cl)c(OC)n3)C2)C1	1070

====

Assay procedure: AUC (0 to infinity) in Sprague-Dawley rat at 150 mg/kg, po by LC-MS/MS analysis
Format: ADME, organism-based
Conditions used: in vivo

Compound structure	Unit tag	AUC(0-inf)
C=CC(=O)N1CCc2c(ncnc2N2CC[C@@H](Nc3ncc(Cl)c(OC)n3)C2)C1	ng·h/mL	31200

====

Assay procedure: Cmax in Sprague-Dawley rat at 50 mg/kg, po measured for 24 hrs by LC-MS/MS analysis
Assay type: ADME, organism-based
Conditions used: in vivo

Compound structure	Cmax
C=CC(=O)N1CCc2c(ncnc2N2CC[C@@H](Nc3ncc(Cl)c(OC)n3)C2)C1	1900 ng/mL

====

Assay procedure: AUC(0 to t) in female Sprague-Dawley rat at 15 mg/kg, po administered via gavage and measured on day 1
Format: ADME, organism-based
Conditions used: in vivo, 24 h, time 1 day

Compound structure	AUCt / ng·h/mL
C=CC(=O)N1CCc2c(ncnc2N2CC[C@@H](Nc3ncc(Cl)c(OC)n3)C2)C1	3000

====

Target under test: Cytochrome P450 2C19 (Homo sapiens, UniProt P33261)
Sequence (P33261 whole entry): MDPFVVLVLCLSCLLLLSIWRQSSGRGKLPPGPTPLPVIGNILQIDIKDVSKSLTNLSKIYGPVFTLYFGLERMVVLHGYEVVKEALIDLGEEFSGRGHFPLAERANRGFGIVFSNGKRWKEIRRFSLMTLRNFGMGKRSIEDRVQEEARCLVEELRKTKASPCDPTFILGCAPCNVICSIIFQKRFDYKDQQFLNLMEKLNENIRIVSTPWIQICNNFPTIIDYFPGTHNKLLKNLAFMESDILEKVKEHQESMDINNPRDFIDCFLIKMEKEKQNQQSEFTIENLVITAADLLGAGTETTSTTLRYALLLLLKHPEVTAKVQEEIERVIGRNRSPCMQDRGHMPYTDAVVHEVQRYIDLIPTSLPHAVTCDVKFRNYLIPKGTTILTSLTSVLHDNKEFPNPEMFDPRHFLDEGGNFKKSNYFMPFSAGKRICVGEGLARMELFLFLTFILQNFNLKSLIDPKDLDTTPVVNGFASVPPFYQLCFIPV
Test readout: IC50

Compound structure	Test readout	Endpoint result
C=CC(=O)N1CCc2c(ncnc2N2CC[C@@H](Nc3ncc(Cl)c(OC)n3)C2)C1	IC50	> 50 µM

====

Assay procedure: AUC in Balb/c mouse xenografted with human MV4-11 cells at 15 mg/kg, po administered once daily via gavage
Assay type: ADME, organism-based
Conditions used: in vivo
Test readout: AUC (ng·h/mL)

Compound structure	Test readout	Endpoint result
C=CC(=O)N1CCc2c(ncnc2N2CC[C@@H](Nc3ncc(Cl)c(OC)n3)C2)C1	AUC	2140

====

Assay procedure: Cmax in Sprague-Dawley rat at 1 mg/kg, iv measured for 24 hrs by LC-MS/MS analysis
Format: ADME, organism-based
Conditions used: in vivo

Compound structure	Cmax [ng/mL]
C=CC(=O)N1CCc2c(ncnc2N2CC[C@@H](Nc3ncc(Cl)c(OC)n3)C2)C1	830

====

System: OCI-AML-3
Assay procedure: Antiproliferative activity against human OCI-AML-3 cells assessed as reduction in cell viability incubated for 7 days by CellTiter-Glo reagent based luminescence analysis
Type: functional
Conditions used: OCI-AML-3, 168 h
pIC50: −log10 of the molar value.

Compound structure	pIC50
C=CC(=O)N1CCc2c(ncnc2N2CC[C@@H](Nc3ncc(Cl)c(OC)n3)C2)C1	6.86

====

Assay procedure: Cmax in Balb/c mouse xenografted with human SUM149PT cells at 60 mg/kg, po administered once daily via gavage
Format: ADME, organism-based
Conditions used: in vivo
Test readout: Cmax (ng/mL)

Compound structure	Test readout	Endpoint result
C=CC(=O)N1CCc2c(ncnc2N2CC[C@@H](Nc3ncc(Cl)c(OC)n3)C2)C1	Cmax	3300

====

Assay procedure: AUC (0 to infinity) in CD-1 mouse at 5 mg/kg, po by LC-MS/MS analysis
Type: ADME, organism-based
Conditions used: in vivo
Test readout: AUC(0-inf) (ng·h/mL)

Compound structure	Endpoint result
CC#CC(=O)N1CCc2c(ncnc2N2CC[C@@H](Nc3ncc(Cl)c(OC)n3)C2)C1	54.7

====

System: SW1417
Assay procedure: Antiproliferative activity against human SW1417 cells assessed as reduction in cell viability incubated for 7 days by CellTiter-Glo reagent based luminescence analysis
Type: functional
Conditions used: SW1417, 168 h

Compound structure	Target under test	IC50
C=CC(=O)N1CCc2c(ncnc2N2CC[C@@H](Nc3ncc(Cl)c(OC)n3)C2)C1	SW1417	137 nM

====

Assay procedure: Cmax in CD-1 mouse at 5 mg/kg, po measured for 24 hrs by LC-MS/MS analysis
Assay type: ADME, organism-based
Conditions used: in vivo
Test readout: Cmax (ng/mL)

Compound structure	Test readout	Endpoint result
CC#CC(=O)N1CCc2c(ncnc2N2CC[C@@H](Nc3ncc(Cl)c(OC)n3)C2)C1	Cmax	101

====

Assay procedure: AUC(0 to t) in male Sprague-Dawley rat at 10 mg/kg, po administered via gavage and measured on day 1
Format: ADME, organism-based
Conditions used: in vivo, 24 h, time 1 day

Compound structure	AUCt
C=CC(=O)N1CCc2c(ncnc2N2CC[C@@H](Nc3ncc(Cl)c(OC)n3)C2)C1	978 ng·h/mL

====

Assay procedure: Half life in Sprague-Dawley rat at 5 mg/kg, po measured for 24 hrs by LC-MS/MS analysis
Format: ADME, organism-based
Conditions used: in vivo

Compound structure	Unit tag	half-life
C=CC(=O)N1CCc2c(ncnc2N2CC[C@@H](Nc3ncc(Cl)c(OC)n3)C2)C1	min	48

====

Assay procedure: Half life in CD-1 mouse at 5 mg/kg, po measured for 24 hrs by LC-MS/MS analysis
Assay type: ADME, organism-based
Conditions used: in vivo

Compound structure	half-life (min)
CC#CC(=O)N1CCc2c(ncnc2N2CC[C@@H](Nc3ncc(Cl)c(OC)n3)C2)C1	15

====

Assay procedure: Half life in Sprague-Dawley rat at 15 mg/kg, po measured for 24 hrs by LC-MS/MS analysis
Type: ADME, organism-based
Conditions used: in vivo
Test readout: half-life (h)

Compound structure	Endpoint result
C=CC(=O)N1CCc2c(ncnc2N2CC[C@@H](Nc3ncc(Cl)c(OC)n3)C2)C1	1.81

====

Assay procedure: Half life in male Sprague-Dawley rat at 10 mg/kg, po administered once daily via gavage for 28 days
Type: ADME, organism-based
Conditions used: in vivo, time 28 day

Compound structure	half-life [min]
C=CC(=O)N1CCc2c(ncnc2N2CC[C@@H](Nc3ncc(Cl)c(OC)n3)C2)C1	210

====

Assay procedure: Cmax in Balb/c mouse xenografted with human MV4-11 cells at 15 mg/kg, po administered once daily via gavage
Assay type: ADME, organism-based
Conditions used: in vivo
Test readout: Cmax (ng/mL)

Compound structure	Unit tag	Endpoint result
C=CC(=O)N1CCc2c(ncnc2N2CC[C@@H](Nc3ncc(Cl)c(OC)n3)C2)C1	ng/mL	647

====

Target under test: CDK9/cyclin T1 (Homo sapiens)
Sequence (O60563 whole entry): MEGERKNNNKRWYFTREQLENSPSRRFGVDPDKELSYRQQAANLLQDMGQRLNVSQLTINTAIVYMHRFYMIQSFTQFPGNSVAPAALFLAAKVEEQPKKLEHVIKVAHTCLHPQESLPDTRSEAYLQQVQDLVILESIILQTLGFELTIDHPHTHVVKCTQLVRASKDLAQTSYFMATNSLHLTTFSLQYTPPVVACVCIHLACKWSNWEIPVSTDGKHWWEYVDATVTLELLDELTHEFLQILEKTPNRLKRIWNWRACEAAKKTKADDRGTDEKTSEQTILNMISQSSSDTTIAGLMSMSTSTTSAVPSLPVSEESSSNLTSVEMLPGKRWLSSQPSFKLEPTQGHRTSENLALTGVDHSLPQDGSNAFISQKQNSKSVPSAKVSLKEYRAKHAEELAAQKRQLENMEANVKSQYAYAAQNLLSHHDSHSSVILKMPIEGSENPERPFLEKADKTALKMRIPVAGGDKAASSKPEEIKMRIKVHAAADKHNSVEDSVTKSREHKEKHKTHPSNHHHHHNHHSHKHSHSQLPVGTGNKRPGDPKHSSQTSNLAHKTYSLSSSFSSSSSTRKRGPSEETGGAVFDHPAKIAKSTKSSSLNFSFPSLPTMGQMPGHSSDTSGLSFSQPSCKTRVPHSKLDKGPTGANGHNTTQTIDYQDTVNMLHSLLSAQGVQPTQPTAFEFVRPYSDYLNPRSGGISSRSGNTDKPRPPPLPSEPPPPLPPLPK
Sequence (P50750 whole entry): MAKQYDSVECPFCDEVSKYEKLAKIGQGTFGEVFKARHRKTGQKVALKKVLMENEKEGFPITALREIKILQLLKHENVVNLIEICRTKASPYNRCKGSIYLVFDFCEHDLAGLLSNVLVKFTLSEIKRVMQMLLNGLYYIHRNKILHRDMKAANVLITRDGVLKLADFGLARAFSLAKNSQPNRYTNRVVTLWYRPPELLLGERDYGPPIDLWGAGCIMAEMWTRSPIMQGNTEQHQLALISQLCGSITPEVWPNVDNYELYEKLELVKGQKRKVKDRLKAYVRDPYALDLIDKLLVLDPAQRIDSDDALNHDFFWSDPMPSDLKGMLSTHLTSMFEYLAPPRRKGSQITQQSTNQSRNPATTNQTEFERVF
Assay procedure: Inhibition of human recombinant N-terminal GST-tagged CDK9/N-terminal GST-tagged and C-terminal 8X His-tagged Cyclin T1 expressed in HEP Sf9 cells using ATP as substrate measured after 60 mins by ADP-Glo reagent based luminescence assay
pIC50: −log10 of the molar value.

Compound structure	pIC50
C=CC(=O)N1CCc2c(ncnc2N2CC[C@@H](Nc3ncc(Cl)c(OC)n3)C2)C1	6.19
